Reference source: ChEMBL document CHEMBL5034034

Here the recorded Vd is given for each entry.
method description: Volume of distribution at steady state in Wistar Han rat at 1 mg/kg, iv measured upto 24 hrs by LC-MS/MS analysis
Assay type: ADME, organism-based
condition parameters: in vivo, read-out: Vdss
Expressed in L/kg, but write only the number.

smiles representation	Vd (L/kg)
COc1ccc(C[C@@H]2NC(=O)[C@H]([C@@H](C)OC)NC(=O)[C@@H]3[C@@H]4CCN3C(=O)[C@H](Cc3c[nH]c5ccc(F)cc35)NC(=O)[C@H](Cc3cccc(c3)C/C=C/CO4)NC(=O)[C@@H](C)NC(=O)[C@H](C)NC(=O)CCSCc3cccc(c3)CSCCNC(=O)[C@]3(C)CCCN3C2=O)cc1	0.8

// below: Vd requested for another compound
// lookup Vd for `COc1ccc(C[C@@H]2NC(=O)[C@H]([C@@H](C)O)NC(=O)[C@@H]3[C@@H]4CCN3C(=O)[C@@H]3Cc5cn(c6ccc(F)cc56)Cc5cn(nn5)-c5cc(cc(c5)CSCCC(=O)N[C@@H](CN)C(=O)N[C@H](C)C(=O)N[C@@H](Cc5cccc(c5)C/C=C/CO4)C(=O)N3)CSCCNC(=O)[C@]3(C)CCCN3C2=O)cc1`
3

###

method description: Protein binding in OATP knock out Wistar Han rat
Type: ADME
condition parameters: read-out: PB
measurement name: fraction unbound
Answer with a bare number; do not write a unit.

For `COc1ccc(C[C@@H]2NC(=O)[C@H]([C@@H](C)OC)NC(=O)[C@@H]3[C@@H]4CCN3C(=O)[C@H](Cc3c[nH]c5ccc(F)cc35)NC(=O)[C@H](Cc3cccc(c3)C/C=C/CO4)NC(=O)[C@@H](C)NC(=O)[C@H](C)NC(=O)CCSCc3cccc(c3)CSCCNC(=O)[C@]3(C)CCCN3C2=O)cc1` , what is its reported fraction unbound?
0.01

###

method description: Half life in cynomolgus monkey at 0.2 mg/kg, iv measured upto 72 hrs by LC-MS/MS analysis
Assay type: ADME, organism-based, Macaca fascicularis
condition parameters: in vivo
Overview of reported half-life across a group of molecules:
// note: answer is a bare numeric in h

smiles representation	half-life (h)
COc1ccc(C[C@@H]2NC(=O)[C@H]([C@@H](C)O)NC(=O)[C@@H]3[C@@H]4CCN3C(=O)[C@@H]3Cc5cn(c6ccc(F)cc56)Cc5cn(nn5)-c5cc(cc(c5)CSCCC(=O)N[C@@H](CNC(=O)CCOCCOCC[N+](C)(C)C)C(=O)N[C@H](C)C(=O)N[C@@H](Cc5cccc(c5)C/C=C/CO4)C(=O)N3)CSCCNC(=O)[C@]3(C)CCCN3C2=O)cc1	7.6

Recorded half-life of `COc1ccc(C[C@@H]2NC(=O)[C@H]([C@@H](C)O)NC(=O)[C@@H]3[C@@H]4CCN3C(=O)[C@@H]3Cc5cn(c6ccc(F)cc56)Cc5cn(nn5)-c5cc(cc(c5)CSCCC(=O)N[C@@H](C)C(=O)N[C@H](CNC(=O)CCOCCOCC[N+](C)(C)C)C(=O)N[C@@H](Cc5cccc(c5)C/C=C/CO4)C(=O)N3)CSCCNC(=O)[C@]3(C)CCCN3C2=O)cc1` , please.
10.1

###

target system: Proprotein convertase subtilisin/kexin type 9 (Homo sapiens, UniProt Q8NBP7)
Sequence (Q8NBP7 31-152 limits assumed): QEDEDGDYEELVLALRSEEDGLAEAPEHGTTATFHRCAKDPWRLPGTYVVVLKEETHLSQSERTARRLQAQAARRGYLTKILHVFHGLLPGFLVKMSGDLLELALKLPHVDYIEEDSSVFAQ
Sequence (Q8NBP7 153-692 limits assumed): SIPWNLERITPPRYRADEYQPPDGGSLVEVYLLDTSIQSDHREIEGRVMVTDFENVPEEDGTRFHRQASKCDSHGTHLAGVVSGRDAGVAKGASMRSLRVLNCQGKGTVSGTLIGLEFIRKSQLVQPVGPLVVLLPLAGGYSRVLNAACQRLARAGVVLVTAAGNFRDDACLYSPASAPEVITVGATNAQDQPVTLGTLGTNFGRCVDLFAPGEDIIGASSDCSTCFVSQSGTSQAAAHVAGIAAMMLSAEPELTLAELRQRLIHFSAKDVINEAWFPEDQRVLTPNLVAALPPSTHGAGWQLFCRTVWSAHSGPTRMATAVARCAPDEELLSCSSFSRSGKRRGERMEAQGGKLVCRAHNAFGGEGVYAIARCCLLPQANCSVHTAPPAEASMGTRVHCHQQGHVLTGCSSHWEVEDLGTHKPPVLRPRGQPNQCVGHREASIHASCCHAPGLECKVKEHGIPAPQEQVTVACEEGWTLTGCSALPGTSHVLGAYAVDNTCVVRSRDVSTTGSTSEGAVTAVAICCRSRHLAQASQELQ
method description: Inhibition of human PCSK9 using Alexa Fluor […] as substrate incubated for 2 hrs by FRET plus assay
pKi: −log10 of the molar value.
Returns one of true (1) or false (0); true (1) when pKi is >= 10.

# bool: pKi of `COc1ccc(C[C@@H]2NC(=O)[C@H]([C@@H](C)OC)NC(=O)[C@@H]3[C@@H]4CCN3C(=O)[C@H](Cc3c[nH]c5ccc(F)cc35)NC(=O)[C@H](Cc3cccc(c3)C/C=C/CO4)NC(=O)[C@@H](C)NC(=O)[C@H](C)NC(=O)CCSCc3cccc(c3)CSCCNC(=O)[C@]3(C)CCCN3C2=O)cc1` >= 10
false (0)

// query: `COc1ccc(C[C@@H]2NC(=O)[C@H]([C@@H](C)O)NC(=O)[C@@H]3[C@@H]4CCN3C(=O)[C@@H]3Cc5cn(c6ccc(F)cc56)Cc5cn(nn5)-c5cc(cc(c5)CSCCC(=O)N[C@@H](CNC(=O)CCOCCOCC[N+](C)(C)C)C(=O)N[C@H](C)C(=O)N[C@@H](Cc5cccc(c5)C/C=C/CO4)C(=O)N3)CSCCNC(=O)[C@]3(C)CCCN3C2=O)cc1`
true (1)

Continue with `COc1ccc(C[C@@H]2NC(=O)[C@H]([C@@H](C)O)NC(=O)[C@@H]3[C@@H]4CCN3C(=O)[C@@H]3Cc5cn(c6ccc(F)cc56)Cc5cn(nn5)-c5cc(cc(c5)CSCCC(=O)N[C@@H](C)C(=O)N[C@H](CNC(=O)CCOCCOCC[N+](C)(C)C)C(=O)N[C@@H](Cc5cccc(c5)C/C=C/CO4)C(=O)N3)CSCCNC(=O)[C@]3(C)CCCN3C2=O)cc1`
true (1)

###

Items are presented alongside their recorded Cmax.
method description: Cmax in Wistar Han rat at 5 mg/kg, id measured upto 24 hrs by LC-MS/MS analysis
Assay type: ADME, organism-based
Parameters: dose 5 mg/kg, time <=24
condition parameters: in vivo
Kindly provide the numeric value in nM only, without the unit symbol.

smiles representation	Cmax / nM
COc1ccc(C[C@@H]2NC(=O)[C@H]([C@@H](C)O)NC(=O)[C@@H]3[C@@H]4CCN3C(=O)[C@@H]3Cc5cn(c6ccc(F)cc56)Cc5cn(nn5)-c5cc(cc(c5)CSCCC(=O)N[C@@H](C)C(=O)N[C@H](CNC(=O)CCOCCOCC[N+](C)(C)C)C(=O)N[C@@H](Cc5cccc(c5)C/C=C/CO4)C(=O)N3)CSCCNC(=O)[C@]3(C)CCCN3C2=O)cc1	178

// lookup Cmax for `COc1ccc(C[C@@H]2NC(=O)[C@H]([C@@H](C)O)NC(=O)[C@@H]3[C@@H]4CCN3C(=O)[C@@H]3Cc5cn(c6ccc(F)cc56)Cc5cn(nn5)-c5cc(cc(c5)CSCCC(=O)N[C@@H](CN)C(=O)N[C@H](C)C(=O)N[C@@H](Cc5cccc(c5)C/C=C/CO4)C(=O)N3)CSCCNC(=O)[C@]3(C)CCCN3C2=O)cc1`
12.4

What about `COc1ccc(C[C@@H]2NC(=O)[C@H]([C@@H](C)O)NC(=O)[C@@H]3[C@@H]4CCN3C(=O)[C@@H]3Cc5cn(c6ccc(F)cc56)Cc5cn(nn5)-c5cc(cc(c5)CSCCC(=O)N[C@@H](CNC(=O)CCOCCOCCN)C(=O)N[C@H](C)C(=O)N[C@@H](Cc5cccc(c5)C/C=C/CO4)C(=O)N3)CSCCNC(=O)[C@]3(C)CCCN3C2=O)cc1` ?
53.3

Please do the same for `COc1ccc(C[C@@H]2NC(=O)[C@H]([C@@H](C)O)NC(=O)[C@@H]3[C@@H]4CCN3C(=O)[C@@H]3Cc5cn(c6ccc(F)cc56)Cc5cn(nn5)-c5cc(cc(c5)CSCCC(=O)N[C@@H](CNC(=O)CCOCCOCC[N+](C)(C)C)C(=O)N[C@H](C)C(=O)N[C@@H](Cc5cccc(c5)C/C=C/CO4)C(=O)N3)CSCCNC(=O)[C@]3(C)CCCN3C2=O)cc1` as well.
92

###

method description: Protein binding in Wistar Han rat at 1 mg/kg, iv measured upto 24 hrs by LC-MS/MS analysis
Format: ADME, organism-based
condition parameters: in vivo, read-out: PB (converted)
measurement name: fraction unbound at 24 h
I'd appreciate a reply containing only the number, no unit.

smiles representation	fraction unbound at 24 h
COc1ccc(C[C@@H]2NC(=O)[C@H]([C@@H](C)O)NC(=O)[C@@H]3[C@@H]4CCN3C(=O)[C@@H]3Cc5cn(c6ccc(F)cc56)Cc5cn(nn5)-c5cc(cc(c5)CSCCC(=O)N[C@@H](CN)C(=O)N[C@H](C)C(=O)N[C@@H](Cc5cccc(c5)C/C=C/CO4)C(=O)N3)CSCCNC(=O)[C@]3(C)CCCN3C2=O)cc1	0.144

Please find the next compound below.
Request the reported fraction unbound at 24 h associated with `COc1ccc(C[C@@H]2NC(=O)[C@H]([C@@H](C)OC)NC(=O)[C@@H]3[C@@H]4CCN3C(=O)[C@H](Cc3c[nH]c5ccc(F)cc35)NC(=O)[C@H](Cc3cccc(c3)C/C=C/CO4)NC(=O)[C@@H](C)NC(=O)[C@H](C)NC(=O)CCSCc3cccc(c3)CSCCNC(=O)[C@]3(C)CCCN3C2=O)cc1`
0.01

###

method description: AUC(0 to infinity) in cynomolgus monkey at 0.2 mg/kg, iv measured upto 72 hrs by LC-MS/MS analysis
Assay type: ADME, organism-based, Macaca fascicularis
Parameters: route intravenous, dose 0.2 mg/kg, time <=72
condition parameters: in vivo
measurement name: AUC(0-inf) (µM·h)
Your answer is read as µM·h, so omit the unit and give the number.

smiles representation	quantity unit	reported value
COc1ccc(C[C@@H]2NC(=O)[C@H]([C@@H](C)O)NC(=O)[C@@H]3[C@@H]4CCN3C(=O)[C@@H]3Cc5cn(c6ccc(F)cc56)Cc5cn(nn5)-c5cc(cc(c5)CSCCC(=O)N[C@@H](C)C(=O)N[C@H](CNC(=O)CCOCCOCC[N+](C)(C)C)C(=O)N[C@@H](Cc5cccc(c5)C/C=C/CO4)C(=O)N3)CSCCNC(=O)[C@]3(C)CCCN3C2=O)cc1	µM·h	0.762

Now turn to the next molecule.
Look up AUC(0-inf): `COc1ccc(C[C@@H]2NC(=O)[C@H]([C@@H](C)O)NC(=O)[C@@H]3[C@@H]4CCN3C(=O)[C@@H]3Cc5cn(c6ccc(F)cc56)Cc5cn(nn5)-c5cc(cc(c5)CSCCC(=O)N[C@@H](CNC(=O)CCOCCOCC[N+](C)(C)C)C(=O)N[C@H](C)C(=O)N[C@@H](Cc5cccc(c5)C/C=C/CO4)C(=O)N3)CSCCNC(=O)[C@]3(C)CCCN3C2=O)cc1`
1.47
